Recorded values, source patent US20130122024A1.

Tested on: Caco-2 cells
Test: Caco-2 flux assay for cell permeability
Type: in vitro ADME
Conditions: 2 hours, B to A
Protocol: The cell permeability of a substance can be investigated by means of in vitro testing in a flux assay using Caco-2 cells [M. D. Troutman and D. R. Thakker, Pharm. Res. 20 (8), 1210-1224 (2003)]. For this purpose, the cells were cultured for 15-16 days on 24-well filter plates. […] The permeability was evaluated on the basis of a Papp value, which was calculated using the formula published by Schwab et al. [D. Schwab et al., J. Med. Chem. 46, 1716-1725 (2003)].
Counter-ions that a name gives are not always drawn. Square brackets hold non-standard residues; d marks the D form. Peptide text beside a SMILES is read from it. * marks the point of attachment. X2 = CC(C)[C@@H](C(=O)*)N(C)CCCCCCN1C(=O)CC(SC[C@H](N)C(=O)O)C1=O; X4 = C[C@@H](O)[C@@H](C(=O)*)N(C)CCCCCC(=O)NCCCC[C@H](N)C(=O)O; X1 = CC(C)[C@@H](C(=O)*)N(C)CCCCCC(=O)NCCCC[C@H](N)C(=O)O; Dolaproine = CO[C@@H]([C@@H]1CCCN1)[C@@H](C)C(=O)O; Dil = CC[C@H](C)[C@H](NC)[C@@H](CC(=O)O)OC; Oxazinan2yl(1,2) = C1CCN(*)OC1; NMeV = CN[C@H](C(=O)O)C(C)C
Outcome: t for Papp (B-A) of at least 0.2 ×10⁻⁶ cm/s; f for anything lower.

compound | assigned-label
CC[C@H](C)[C@@H]([C@@H](CC(=O)N1CCC[C@H]1[C@H](OC)[C@@H](C)C(=O)N[C@@]1(C(=O)N2CCCCO2)C[C@@H]1c1ccccc1)OC)N(C)C(=O)[C@@H](NC(=O)[C@H](C(C)C)N(C)CCCC(=O)NNC(=O)CCCCCN1C(=O)CC(SC[C@H](N)C(=O)O)C1=O)C(C)C (some centres unmarked) | t
CC[C@H](C)[C@@H]([C@@H](CC(=O)N1CCC[C@H]1[C@H](OC)[C@@H](C)C(=O)N[C@@H](Cc1c[nH]c2ccccc12)C(=O)NCc1ccccc1)OC)N(C)C(=O)[C@@H](NC(=O)[C@H](C(C)C)N(C)CCCC(=O)NNC(=O)CCCCCN1C(=O)CC(SC[C@H](N)C(=O)O)C1=O)C(C)C (some centres unmarked) | t
CC[C@H](C)[C@@H]([C@@H](CC(=O)N1CCC[C@H]1[C@H](OC)[C@@H](C)C(=O)N[C@@H](Cc1c[nH]c2ccccc12)C(=O)O)OC)N(C)C(=O)[C@@H](NC(=O)[C@H](C(C)C)N(C)CCCC(=O)NNC(=O)CCCCCN1C(=O)CC(SC[C@H](N)C(=O)O)C1=O)C(C)C (some centres unmarked) | f
CC[C@H](C)[C@@H]([C@@H](CC(=O)N1CCC[C@H]1[C@H](OC)[C@@H](C)C(=O)N[C@@H](Cc1c[nH]c2ccccc12)C(N)=O)OC)N(C)C(=O)[C@@H](NC(=O)[C@H](C(C)C)N(C)CCCCCCN1C(=O)CC(SC[C@H](N)C(=O)O)C1=O)C(C)C (some centres unmarked) [Example 65] (X2-V[Dil][Dolaproine]W-NH2) | t
CC[C@H](C)[C@@H]([C@@H](CC(=O)N1CCC[C@H]1[C@H](OC)[C@@H](C)C(=O)N[C@@H](Cc1c[nH]c2ccccc12)C(=O)N1CCCCO1)OC)N(C)C(=O)[C@@H](NC(=O)[C@H]([C@@H](C)O)N(C)CCCCCC(=O)NCCCC[C@H](N)C(=O)O)C(C)C [Example 116, trifluoroacetate] (X4-V[Dil][Dolaproine]W-{Oxazinan2yl(1,2)}) | f
CC[C@H](C)[C@@H]([C@@H](CC(=O)N1CCC[C@H]1[C@H](OC)[C@@H](C)C(=O)N[C@@H](Cc1ccc(O)cc1)C(=O)N1CCCCO1)OC)N(C)C(=O)[C@@H](NC(=O)[C@H](C(C)C)N(C)CCCCCC(=O)NCCCC[C@H](N)C(=O)O)C(C)C [Example 117, trifluoroacetate] (X1-V[Dil][Dolaproine]Y-{Oxazinan2yl(1,2)}) | f
CC[C@H](C)[C@@H]([C@@H](CC(=O)N1CCC[C@H]1[C@H](OC)[C@@H](C)C(=O)N[C@@H](Cc1c[nH]c2ccccc12)C(=O)O)OC)N(C)C(=O)[C@@H](NC(=O)[C@H](C(C)C)N(C)CCCCCC(=O)NCCCC[C@H](N)C(=O)O)C(C)C [Example 106] (X1-V[Dil][Dolaproine]W-OH) | f
CC[C@H](C)[C@@H]([C@@H](CC(=O)N1CCC[C@H]1[C@H](OC)[C@@H](C)C(=O)N[C@@H](Cc1c[nH]c2ccccc12)C(=O)O)OC)N(C)C(=O)[C@@H](NC(=O)[C@H](C(C)C)N(C)CCCCCCN1C(=O)CC(SC[C@H](N)C(=O)O)C1=O)C(C)C (some centres unmarked) [Example 66] (X2-V[Dil][Dolaproine]W-OH) | f
CC[C@H](C)[C@@H]([C@@H](CC(=O)N1CCC[C@H]1[C@H](OC)[C@@H](C)C(=O)N[C@@H](Cc1ccccc1)C(=O)O)OC)N(C)C(=O)[C@@H](NC(=O)[C@@H](NC)C(C)C)C(C)C [MMAF, Monomethylauristatin F, reference compound] (H-[NMeV]V[Dil][Dolaproine]F-OH) | t
